FYI, the data here is from patent US20130217664A1.

- system under test: human TYK2 (Homo sapiens, UniProt P29597)
- Construct: catalytic domain (amino acids 871-1187; catalog number 08-147)
- Sequence (P29597 871-1187): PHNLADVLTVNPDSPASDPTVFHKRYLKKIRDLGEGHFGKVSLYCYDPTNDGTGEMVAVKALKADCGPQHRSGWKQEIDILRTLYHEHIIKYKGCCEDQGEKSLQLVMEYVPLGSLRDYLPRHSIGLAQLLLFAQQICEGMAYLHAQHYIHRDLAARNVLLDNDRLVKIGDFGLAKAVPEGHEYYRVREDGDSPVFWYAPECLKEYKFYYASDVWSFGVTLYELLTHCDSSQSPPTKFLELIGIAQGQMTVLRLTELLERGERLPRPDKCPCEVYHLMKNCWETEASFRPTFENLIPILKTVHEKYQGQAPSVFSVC
- assay explanation: TYK2 inhibition assay
- setup conditions: recombinant human TYK2 catalytic domain, polyGT substrate
pIC50: −log10 of the molar value.
Assignment: determine reported pIC50 for the given compounds.

// Input: CN(c1cc2c(cn1)ncn2C)c1ccc(CNS(C)(=O)=O)cc1OC(F)F . Output its pIC50 only. 6.30 to 7.00

// Input: COc1ccc(COc2ccc(N(C)c3cc4c(cn3)ncn4C)c(C)c2)cc1 . Output its pIC50 only. < 6.00

// Input: CN(c1cc2c(cn1)ncn2C)c1ccc(CNS(C)(=O)=O)cc1F . Output its pIC50 only. 7.00 to 11.00

// Input: COCN(Cc1ccc(N(C)c2cc3c(cn2)ncn3C)c(F)c1)S(C)(=O)=O . Output its pIC50 only. < 6.00

// Input: CCc1cc(N2CC(C#N)C2)ncc1N(C)c1cc2c(cn1)ncn2C . Output its pIC50 only. 7.00 to 11.00

---

- Tested on: BA/F3 cell line
- assay explanation: BA/F3 viability assay
- setup conditions: Mus musculus, BaF3, 48 h, read-out: BA/F3 IC50
measured property: IC50

// Input: CCc1cc(C2=CCN(C(=O)COC)CC2)ccc1N(C)c1cc2c(cn1)ncn2C . Output its IC50 only. 1 to 5 µM

// Input: CCc1cc(-c2cncs2)ccc1N(C)c1cc2c(cn1)ncn2C . Output its IC50 only. 1 to 5 µM

// Input: CCc1cc(CN(C)S(C)(=O)=O)c(F)cc1N(C)c1cc2c(cn1)ncn2C . Output its IC50 only. 1 to 5 µM

// Input: CCn1nc(-c2ccc(Cl)cc2)cc1N(C)c1cc2c(cn1)ncn2C . Output its IC50 only. > 5 µM

// Input: CN(c1cc2c(cn1)ncn2C)c1c(F)cc(C2CN(S(C)(=O)=O)C2)cc1F . Output its IC50 only. > 5 µM

// Input: CCc1cc(C2CCOCC2)ccc1N(C)c1cc2c(cn1)ncn2C . Output its IC50 only. 1 to 5 µM

// Input: CCc1cc(CO)ccc1N(C)c1cc2c(cn1)ncn2C . Output its IC50 only. > 5 µM

// Input: CCc1cc(C(C#N)N2CCNC(=O)C2)ccc1N(C)c1cc2c(cn1)ncn2C (centres unmarked) . Output its IC50 only. > 5 µM

// Input: CCc1cc(C2CN(C(=O)C3CCOCC3)C2)ncc1N(C)c1cc2c(cn1)ncn2C . Output its IC50 only. > 5 µM

// Input: CCc1cc(C2CN(CC#N)C2)ccc1N(C)c1cc2c(cn1)ncn2C . Output its IC50 only. > 5 µM

// Input: CCc1cc(C2CN(S(=O)(=O)CC(F)(F)F)C2)ccc1N(C)c1cc2c(cn1)ncn2C . Output its IC50 only. > 5 µM

// Input: CCc1cc(C(C#N)N2CCOCC2)ccc1N(C)c1cc2c(cn1)ncn2C (centres unmarked) . Output its IC50 only. > 5 µM

// Input: CCc1cc(C2(CCNS(C)(=O)=O)COC2)ccc1N(C)c1cc2c(cn1)ncn2C . Output its IC50 only. > 5 µM

// Input: CN(c1cc2c(cn1)ncn2C)c1ccc(C2CN(CC(F)(F)F)C2)cc1OC(F)F . Output its IC50 only. > 5 µM

// Input: CCc1cc(CNS(=O)(=O)NC)ccc1N(C)c1cc2c(cn1)ncn2C . Output its IC50 only. 1 to 5 µM

// Input: CCc1cc(C2CN(S(=O)(=O)C(F)F)C2)ccc1N(C)c1cc2c(cn1)ncn2C . Output its IC50 only. 1 to 5 µM

// Input: CCc1cc(-c2cnn(C)c2)ncc1N(C)c1cc2c(cn1)ncn2C . Output its IC50 only. > 5 µM

// Input: CCc1cc(CNS(=O)(=O)C2CC2)ccc1N(C)c1cc2c(cn1)ncn2C . Output its IC50 only. > 5 µM

// Input: CCc1cc(C(C#N)N2CCN(S(C)(=O)=O)CC2)ccc1N(C)c1cc2c(cn1)ncn2C (centres unmarked) . Output its IC50 only. > 5 µM

// Input: CCc1cc(C2CCN(C(=O)C(F)F)CC2)ccc1N(C)c1cc2c(cn1)ncn2C . Output its IC50 only. 1 to 5 µM

// Input: CCc1cc(CNC(C)=O)ccc1N(C)c1cc2c(cn1)ncn2C . Output its IC50 only. > 5 µM

// Input: CCc1cc(C2CN(S(=O)(=O)CCOC)C2)ccc1N(C)c1cc2c(cn1)ncn2C . Output its IC50 only. 1 to 5 µM

// Input: CCc1cc(C2CN(S(=O)(=O)CC#N)C2)ccc1N(C)c1cc2c(cn1)ncn2C . Output its IC50 only. 1 to 5 µM

// Input: CCc1cc(CNC2COC2)ccc1N(C)c1cc2c(cn1)ncn2C . Output its IC50 only. > 5 µM

// Input: CCc1cc(-c2cncc(F)c2)ccc1N(C)c1cc2c(cn1)ncn2C . Output its IC50 only. > 5 µM

// Input: CCc1cc(CC#N)ccc1N(C)c1cc2c(cn1)ncn2C . Output its IC50 only. 1 to 5 µM

// Input: CCc1cc(C2CN(C(=O)C(F)(F)F)C2)ncc1N(C)c1cc2c(cn1)ncn2C . Output its IC50 only. > 5 µM

// Input: CCc1cc(C2CCN(S(C)(=O)=O)CC2)ncc1N(C)c1cc2c(cn1)ncn2C . Output its IC50 only. 1 to 5 µM

// Input: CCc1cc(C2(CC#N)COC2)ccc1N(C)c1cc2c(cn1)ncn2C . Output its IC50 only. > 5 µM

// Input: CCc1cc(C2(COS(=O)(=O)C(F)F)CCNC2)ccc1N(C)c1cc2c(cn1)ncn2C (centres unmarked) . Output its IC50 only. 1 to 5 µM

// Input: CCc1cc(CC#N)ncc1N(C)c1cc2c(cn1)ncn2C . Output its IC50 only. > 5 µM

// Input: CCc1cc(C(CC#N)NS(C)(=O)=O)ccc1N(C)c1cc2c(cn1)ncn2C (centres unmarked) . Output its IC50 only. > 5 µM

// Input: CCc1cc(CN2CC(C#N)C2)ccc1N(C)c1cc2c(cn1)ncn2C . Output its IC50 only. > 5 µM

// Input: CCc1cc(CNC(=O)C(F)F)ccc1N(C)c1cc2c(cn1)ncn2C . Output its IC50 only. > 5 µM

// Input: CCc1cc(CNS(=O)(=O)CC)ccc1N(C)c1cc2c(cn1)ncn2C . Output its IC50 only. > 5 µM

---

- system under test: human TYK2 (Homo sapiens, UniProt P29597)
- Construct: catalytic domain (amino acids 871-1187; catalog number 08-147)
- assay explanation: TYK2 inhibition assay
- setup conditions: recombinant human TYK2 catalytic domain, polyGT substrate
Assignment: determine reported IC50 for the given compounds.

// output IC50; input CCc1ccc(C#N)cc1N(C)c1cc2c(cn1)ncn2C ; system human TYK2 (Homo sapiens, UniProt P29597) 101 to 500 nM

// output IC50; input CCc1nc(C2CN(C(=O)OC(C)(C)C)C2)cnc1N(C)c1cc2c(cn1)ncn2C ; system human TYK2 (Homo sapiens, UniProt P29597) > 1000 nM

// output IC50; input CCc1cc(CNS(=O)(=O)CC)ccc1N(C)c1cc2c(cn1)ncn2C ; system human TYK2 (Homo sapiens, UniProt P29597) 0.01 to 100 nM

// output IC50; input CCC(=O)N1CC=C(c2ccc(N(C)c3cc4c(cn3)ncn4C)c(CC)c2)CC1 ; system human TYK2 (Homo sapiens, UniProt P29597) 0.01 to 100 nM

// output IC50; input CCc1cc(N2CC(NS(C)(=O)=O)C2)ncc1N(C)c1cc2c(cn1)ncn2C ; system human TYK2 (Homo sapiens, UniProt P29597) 0.01 to 100 nM

// output IC50; input CCc1cc(C2CN(C(=O)C(F)F)C2)ncc1N(C)c1cc2c(cn1)ncn2C ; system human TYK2 (Homo sapiens, UniProt P29597) 501 to 1000 nM

// output IC50; input CN(c1cc2c(cn1)ncn2C)c1ccc(C2CN(S(=O)(=O)N3CCCCC3)C2)cc1OC(F)F ; system human TYK2 (Homo sapiens, UniProt P29597) 101 to 500 nM

// output IC50; input CCc1cc(-c2cncc(C(F)(F)F)c2)ccc1N(C)c1cc2c(cn1)ncn2C ; system human TYK2 (Homo sapiens, UniProt P29597) 501 to 1000 nM

// output IC50; input CCc1cc(-c2cccc(C#N)c2)ccc1N(C)c1cc2c(cn1)ncn2C ; system human TYK2 (Homo sapiens, UniProt P29597) 501 to 1000 nM

// output IC50; input CCc1cc(C(C#N)N2CCC(F)(F)CC2)ccc1N(C)c1cc2c(cn1)ncn2C (centres unmarked) ; system human TYK2 (Homo sapiens, UniProt P29597) 0.01 to 100 nM

// output IC50; input CCc1cc(CNCC#N)ccc1N(C)c1cc2c(cn1)ncn2C ; system human TYK2 (Homo sapiens, UniProt P29597) 0.01 to 100 nM

// output IC50; input CCc1cc(C2(CCNS(=O)(=O)C(F)F)COC2)ccc1N(C)c1cc2c(cn1)ncn2C ; system human TYK2 (Homo sapiens, UniProt P29597) 0.01 to 100 nM

// output IC50; input CCc1cc(-c2cnn(Cc3ccc(F)cc3)c2)ccc1N(C)c1cc2c(cn1)ncn2C ; system human TYK2 (Homo sapiens, UniProt P29597) 0.01 to 100 nM

// output IC50; input CCc1cc(C(C#N)N2CCOCC2)ccc1N(C)c1cc2c(cn1)ncn2C (centres unmarked) ; system human TYK2 (Homo sapiens, UniProt P29597) 0.01 to 100 nM

// output IC50; input CCc1cc(N2CC(C(=O)NC)C2)ncc1N(C)c1cc2c(cn1)ncn2C ; system human TYK2 (Homo sapiens, UniProt P29597) 501 to 1000 nM

// output IC50; input CCc1cc(-c2cnc(OC3COC3)nc2)ccc1N(C)c1cc2c(cn1)ncn2C ; system human TYK2 (Homo sapiens, UniProt P29597) 101 to 500 nM

// output IC50; input COc1cc(N2CCOCC2)ncc1N(C)c1cc2c(cn1)ncn2C ; system human TYK2 (Homo sapiens, UniProt P29597) 101 to 500 nM
